From: PubChem BioAssay

Target: Cellular tumor antigen p53 (Homo sapiens) (UniProt P04637)
Sequence (P04637 whole entry, looked up): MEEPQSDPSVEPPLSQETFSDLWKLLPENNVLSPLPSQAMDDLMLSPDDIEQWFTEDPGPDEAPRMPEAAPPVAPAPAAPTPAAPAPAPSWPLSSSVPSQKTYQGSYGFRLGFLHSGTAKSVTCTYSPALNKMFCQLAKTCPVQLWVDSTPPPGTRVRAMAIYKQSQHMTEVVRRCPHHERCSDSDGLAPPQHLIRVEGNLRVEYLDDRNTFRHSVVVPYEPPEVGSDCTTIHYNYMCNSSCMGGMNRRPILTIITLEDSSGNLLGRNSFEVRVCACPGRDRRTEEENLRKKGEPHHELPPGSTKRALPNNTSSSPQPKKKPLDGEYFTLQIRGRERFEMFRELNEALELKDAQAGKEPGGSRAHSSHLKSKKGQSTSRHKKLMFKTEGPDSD
Assay: kinase inhibitors altering GFP-p53 stability in HPV16-positive cells, imaging, known kinase inhibitor set, EGFP/DsRed ratio (AID 1053116);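 further: test concentration not given here; cells exposed to compounds for 24 h at 37 °C before reading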
Conditions: stronger effect = higher value; measured here: GFP-p53 positive objects count
We begin with a simple list: items and their reported EGFP object count.
Give the figure by itself; no unit, no explanation.

Illustrative cases are given below, each with its answer.
O=C1NC(=O)C(N2CCc3ccccc32)=C1c1ccc(Cl)cc1    4
O=C(O[C@H]1CN[C@H](C#Cc2cc3ncnc(Nc4ccc(Cc5ccccc5)cc4)c3s2)C1)N1CCOCC1    5.5
N#Cc1ccc2c(-c3ccnc(NC4CC4)n3)c(-c3ccc(F)cc3)nn2c1    0.5

Form: molecule = COc1cccc(-n2nc(C)c3c(N/N=C(\C)c4ccncc4)ncnc32)c1 ; EGFP object count = 2

Form: molecule = CS(=O)(=O)CCNCc1nc(-c2ccc3ncnc(Nc4ccc(OCc5cccc(C(F)(F)F)c5)cc4)c3c2)cs1 ; EGFP object count = 4.5

Form: molecule = COc1cccc(COc2cc(-n3cnc4ccccc43)sc2C(N)=O)c1 ; EGFP object count = 4

Form: molecule = COc1cc[nH]c1C=C1C(=O)Nc2ccc(F)c(I)c21 ; EGFP object count = 46
